Source of measurements: paper PMC3199943

- ASSAYED TARGET: UniProt Q5QQ46
- Sequence (Q5QQ46 1-528): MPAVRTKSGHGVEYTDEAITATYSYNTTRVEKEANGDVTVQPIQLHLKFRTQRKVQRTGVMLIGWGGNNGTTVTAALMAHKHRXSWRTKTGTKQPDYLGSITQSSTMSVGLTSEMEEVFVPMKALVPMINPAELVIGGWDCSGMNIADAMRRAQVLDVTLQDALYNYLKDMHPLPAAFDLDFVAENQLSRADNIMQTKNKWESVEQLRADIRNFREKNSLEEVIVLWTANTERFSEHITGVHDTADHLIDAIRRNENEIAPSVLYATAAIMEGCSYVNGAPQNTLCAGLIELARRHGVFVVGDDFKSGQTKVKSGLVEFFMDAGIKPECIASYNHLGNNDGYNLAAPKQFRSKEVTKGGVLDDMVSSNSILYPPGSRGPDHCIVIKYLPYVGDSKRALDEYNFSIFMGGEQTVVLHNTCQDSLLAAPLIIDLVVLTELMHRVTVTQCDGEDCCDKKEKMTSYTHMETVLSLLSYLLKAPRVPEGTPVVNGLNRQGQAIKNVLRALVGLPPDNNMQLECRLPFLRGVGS
- ASSAY METHOD TEXT: biochemical
- Format: binding
- ASSAY CONTEXT: read-out: Tb Ino1 Tm Shift [˚C]
Task for the reader: assign each of the following compounds its reported ΔTm at 1000 µM.
Report the figure in °C without appending any unit label.

Given the compound CCCc1ccc(C(C)=O)cc1 [compound 288, 1‐(4‐propylphenyl)ethan‐1‐one] , what is its reported ΔTm at 1000 µM?
0.22

How about Cc1nc(C(=O)O)cs1 [compound 146, 2‐methyl‐1,3‐thiazole‐4‐carboxylic acid] ?
0.1

Now consider OCc1ccncc1 [compound 18, 4‐pyridinylmethanol] and answer again.
0.36

Please give the result for O=C(O)c1cc2cccnc2s1 [compound 445, thieno[2,3‐b]pyridine‐2‐carboxylic acid] too.
0.61

Then what about the compound O=C(O)c1ccccc1F [compound 129, 2‐fluorobenzoic acid] ?
0.13

Further, for CCOC(=O)C1CSCCN1 (stereo not drawn) [compound 402, ethyl thiomorpholine‐3‐carboxylate] ?
0.45

Here is the next compound: Cc1ncsc1C(=O)O [compound 145, 4‐Methyl‐thiazole‐5‐carboxylic acid]
0.01

Nc1cc(F)cc(F)c1 [compound 89, 3,5‐difluoroaniline] , same question.
0.3

Input O=C(O)c1ccc(-c2ccccc2)nc1 [compound 610, 6‐phenylnicotinic acid]
0.46

* * *

- System: A549 cells
- ASSAY METHOD TEXT: Cytotoxicity against A549 cells, Alamar Blue
- Format: cell-based
- ASSAY CONTEXT: Homo sapiens, A549, 65 h; Supplementary Table 1; compound 0.5 mM; percentage of controls (n=1)
PARAMETER: viability at 500 µM (%)
Expressed in %, but write only the number.

# value lookup — system A549 cells, readout viability at 500 µM, item O=C(O)Cc1ccccc1O [compound 201, 2‐(2‐hydroxyphenyl)acetic acid]
94.2

CNCc1ccc(Cl)cc1 ?
107

Again, but for OCc1ccc(-c2ccco2)cc1 [compound 383, [4-(2-furyl)phenyl]methanol]
89.6

Query OCc1ccc(N2CCOCC2)s1 next
76.3

Same lookup for Nc1nsc(-c2ccccc2)n1 , please.
60.1

Query Cn1ccc2c(C(=O)O)cccc21 next
123

And what about the compound CCCCCSc1nnc[nH]1 ?
45.3

Please answer likewise for Cc1ccc[nH]c1=O [compound 17, 3‐methyl‐1,2‐dihydropyridin‐2‐one]
87.2

What about this compound? CN1CCN(c2ccc(N)cc2)CC1
17.5

What would you report for COC(=O)c1cc2ccccc2cn1 [compound 514, methyl isoquinoline‐3‐carboxylate] ?
65.3

Same question for N#Cc1cc(Cl)ccc1O [compound 218, 5‐chloro‐2‐hydroxybenzonitrile] please.
67.7

Now the same for NCc1ccccc1N1CCOCC1
70.9

Similarly, NCc1ccc(-n2cccn2)cc1 ?
95.9

Okay, and CN(C)CCOc1ccc(C#N)cc1 [compound 542, 4‐[2‐(dimethylamino)ethoxy]benzonitrile] ?
69.7

Proceed to COC(=O)c1ccc(N)c(C)c1 [compound 304, methyl 4‐amino‐3‐methylbenzoate]
63.4

Next compound: OCc1ccncc1
102

// next record COC(=O)c1cccc(C)c1 [compound 185, methyl 3‐methylbenzoate]
61.3
